Ref: ChEMBL document CHEMBL1158849

Kindly supply the reported EC50 values for the records listed here.
System: A498
Test: Cytotoxicity against human A498 cells after 7 days by MTT assay
Type: functional
Settings: A498, 168 h, read-out: ED50 (the source's name)
Unit µg/mL implied. Number only.

query: Give recorded EC50 with A498 for the following compound: CC(=O)O[C@H]1C[C@@H](OC(=O)c2ccccc2)C(C)(C)[C@@H]2C[C@@H](OC(C)=O)[C@@]3(C)C4=CC[C@@H](C5COC(=O)C5)[C@]4(C)CC[C@@H]3[C@@]12C (some centres not stated) [MELIANIN C]
result: 26.5

query: Give recorded EC50 with A498 for the following compound: CC(=O)O[C@H]1C[C@@H](OC(=O)c2ccccc2)C(C)(C)[C@@H]2C[C@@H](OC(C)=O)[C@@]3(C)C4=CC[C@@H](C5COC(C)(C)[C@@H](O)[C@H](O)C5)[C@]4(C)CC[C@@H]3[C@@]12C (some centres not stated) [MELIANIN B]
result: 3.67

query: Give recorded EC50 with A498 for the following compound: CC(=O)O[C@H]1C[C@@H](OC(=O)c2ccccc2)C(C)(C)[C@@H]2C[C@@H](OC(C)=O)[C@@]3(C)C4=CC(=O)[C@@H](C5COC(C)(C)C(=O)C(=O)C5)[C@]4(C)CC[C@@H]3[C@@]12C (some centres not stated) [16,23,24-TRIKETOMELIANIN B]
result: 4.15

query: Give recorded EC50 with A498 for the following compound: CC(=O)O[C@@H]1C[C@H](OC(=O)c2ccccc2)[C@@]2(C)[C@H]3[C@H](OC[C@]13C)[C@@H](O)[C@@]1(C)C3=CC[C@@H](c4ccoc4)[C@]3(C)CC[C@@H]12 [MELIAVOLKININ]
result: 26.9

query: Give recorded EC50 with A498 for the following compound: COc1cccc2c1C(=O)c1c(O)c3c(c(O)c1C2=O)C[C@@](O)(C(=O)CO)C[C@@H]3O[C@H]1C[C@H](N)[C@H](O)[C@H](C)O1 [DOXORUBICIN]
result: 0.00424

query: Give recorded EC50 with A498 for the following compound: CC(=O)O[C@H]1C[C@@H](OC(=O)c2ccccc2)C(C)(C)[C@@H]2C[C@@H](OC(C)=O)[C@@]3(C)C4=CC[C@@H](C5COC(C)(C)C(=O)C(=O)C5)[C@]4(C)CC[C@@H]3[C@@]12C (some centres not stated)
result: 4.78

query: Give recorded EC50 with A498 for the following compound: "CC(=O)O[C@H]1C[C@@H](OC(C)=O)[C@@]2(C)CO[C@@H]3[C@@H](O)[C@@]4(C)C5=CC[C@@H](c6ccoc6)[C@]5(C)CC[C@@H]4[C@]1(C)[C@@H]32"
result: 3.35

---

Kindly supply the reported EC50 values for the records listed here.
Test system: PC-3
Assay: Cytotoxicity against human PC3 cells after 7 days by MTT assay
Type: functional
Details: PC-3, 168 h, read-out: ED50 (the source's name)
Unit µg/mL implied. Number only.

query: Item "CC(=O)O[C@H]1C[C@@H](OC(C)=O)[C@@]2(C)CO[C@@H]3[C@@H](O)[C@@]4(C)C5=CC[C@@H](c6ccoc6)[C@]5(C)CC[C@@H]4[C@]1(C)[C@@H]32" has what recorded EC50?
result: 2.78

query: Item CC(=O)O[C@H]1C[C@@H](OC(=O)c2ccccc2)C(C)(C)[C@@H]2C[C@@H](OC(C)=O)[C@@]3(C)C4=CC(=O)[C@@H](C5COC(C)(C)C(=O)C(=O)C5)[C@]4(C)CC[C@@H]3[C@@]12C (some centres not stated) has what recorded EC50?
result: 2.1

query: Item CC(=O)O[C@H]1C[C@@H](OC(=O)c2ccccc2)C(C)(C)[C@@H]2C[C@@H](OC(C)=O)[C@@]3(C)C4=CC[C@@H](C5COC(=O)C5)[C@]4(C)CC[C@@H]3[C@@]12C (some centres not stated) has what recorded EC50?
result: 0.473

query: Item "COc1cccc2c1C(=O)c1c(O)c3c(c(O)c1C2=O)C[C@@](O)(C(=O)CO)C[C@@H]3O[C@H]1C[C@H](N)[C@H](O)[C@H](C)O1" has what recorded EC50?
result: 0.0276

query: Item "CC(=O)O[C@@H]1C[C@H](OC(=O)c2ccccc2)[C@@]2(C)[C@H]3[C@H](OC[C@]13C)[C@@H](O)[C@@]1(C)C3=CC[C@@H](c4ccoc4)[C@]3(C)CC[C@@H]12" has what recorded EC50?
result: 1.02

query: Item CC(=O)O[C@H]1C[C@@H](OC(=O)c2ccccc2)C(C)(C)[C@@H]2C[C@@H](OC(C)=O)[C@@]3(C)C4=CC[C@@H](C5COC(C)(C)[C@@H](O)[C@H](O)C5)[C@]4(C)CC[C@@H]3[C@@]12C (some centres not stated) has what recorded EC50?
result: 0.393

query: Item CC(=O)O[C@H]1C[C@@H](OC(=O)c2ccccc2)C(C)(C)[C@@H]2C[C@@H](OC(C)=O)[C@@]3(C)C4=CC[C@@H](C5COC(C)(C)C(=O)C(=O)C5)[C@]4(C)CC[C@@H]3[C@@]12C (some centres not stated) has what recorded EC50?
result: 0.0281

---

System: HT-29
Experiment: Cytotoxicity against human HT-29 cells after 7 days by MTT assay
Format: functional
Settings: HT-29, 168 h, read-out: ED50 (the source's name)
Kindly supply the reported log10 EC50 values for the records listed here.
Heads up, the numbers here are log10 of EC50 in µg/mL units.

query: Give recorded log10 EC50 with HT-29 for the following compound: CC(=O)O[C@H]1C[C@@H](OC(=O)c2ccccc2)C(C)(C)[C@@H]2C[C@@H](OC(C)=O)[C@@]3(C)C4=CC[C@@H](C5COC(C)(C)C(=O)C(=O)C5)[C@]4(C)CC[C@@H]3[C@@]12C (some centres not stated)
result: 0.80

query: Give recorded log10 EC50 with HT-29 for the following compound: CC(=O)O[C@H]1C[C@@H](OC(=O)c2ccccc2)C(C)(C)[C@@H]2C[C@@H](OC(C)=O)[C@@]3(C)C4=CC[C@@H](C5COC(C)(C)[C@@H](O)[C@H](O)C5)[C@]4(C)CC[C@@H]3[C@@]12C (some centres not stated) [MELIANIN B]
result: 0.33

query: Give recorded log10 EC50 with HT-29 for the following compound: CC(=O)O[C@H]1C[C@@H](OC(=O)c2ccccc2)C(C)(C)[C@@H]2C[C@@H](OC(C)=O)[C@@]3(C)C4=CC[C@@H](C5COC(=O)C5)[C@]4(C)CC[C@@H]3[C@@]12C (some centres not stated) [MELIANIN C]
result: 1.26

query: Give recorded log10 EC50 with HT-29 for the following compound: COc1cccc2c1C(=O)c1c(O)c3c(c(O)c1C2=O)C[C@@](O)(C(=O)CO)C[C@@H]3O[C@H]1C[C@H](N)[C@H](O)[C@H](C)O1 [DOXORUBICIN]
result: -1.45

query: Give recorded log10 EC50 with HT-29 for the following compound: CC(=O)O[C@@H]1C[C@H](OC(=O)c2ccccc2)[C@@]2(C)[C@H]3[C@H](OC[C@]13C)[C@@H](O)[C@@]1(C)C3=CC[C@@H](c4ccoc4)[C@]3(C)CC[C@@H]12 [MELIAVOLKININ]
result: 1.45

query: Give recorded log10 EC50 with HT-29 for the following compound: CC(=O)O[C@H]1C[C@@H](OC(=O)c2ccccc2)C(C)(C)[C@@H]2C[C@@H](OC(C)=O)[C@@]3(C)C4=CC(=O)[C@@H](C5COC(C)(C)C(=O)C(=O)C5)[C@]4(C)CC[C@@H]3[C@@]12C (some centres not stated) [16,23,24-TRIKETOMELIANIN B]
result: 0.80

query: Give recorded log10 EC50 with HT-29 for the following compound: "CC(=O)O[C@H]1C[C@@H](OC(C)=O)[C@@]2(C)CO[C@@H]3[C@@H](O)[C@@]4(C)C5=CC[C@@H](c6ccoc6)[C@]5(C)CC[C@@H]4[C@]1(C)[C@@H]32"
result: 0.57

---

Test system: MIA PaCa-2
Assay: Cytotoxicity against human MIAPaCa2 cells after 7 days by MTT assay
Assay type: functional
Details: MIA PaCa-2, 168 h, read-out: ED50 (the source's name)
Threshold 3 µg/mL: EC50 strictly smaller gives YES, otherwise NO.

query: Threshold test, EC50 < 3 µg/mL: "COc1cccc2c1C(=O)c1c(O)c3c(c(O)c1C2=O)C[C@@](O)(C(=O)CO)C[C@@H]3O[C@H]1C[C@H](N)[C@H](O)[C@H](C)O1"
result: YES

query: Threshold test, EC50 < 3 µg/mL: CC(=O)O[C@H]1C[C@@H](OC(=O)c2ccccc2)C(C)(C)[C@@H]2C[C@@H](OC(C)=O)[C@@]3(C)C4=CC[C@@H](C5COC(C)(C)[C@@H](O)[C@H](O)C5)[C@]4(C)CC[C@@H]3[C@@]12C (some centres not stated)
result: YES

query: Threshold test, EC50 < 3 µg/mL: "CC(=O)O[C@@H]1C[C@H](OC(=O)c2ccccc2)[C@@]2(C)[C@H]3[C@H](OC[C@]13C)[C@@H](O)[C@@]1(C)C3=CC[C@@H](c4ccoc4)[C@]3(C)CC[C@@H]12"
result: NO

query: Threshold test, EC50 < 3 µg/mL: CC(=O)O[C@H]1C[C@@H](OC(=O)c2ccccc2)C(C)(C)[C@@H]2C[C@@H](OC(C)=O)[C@@]3(C)C4=CC(=O)[C@@H](C5COC(C)(C)C(=O)C(=O)C5)[C@]4(C)CC[C@@H]3[C@@]12C (some centres not stated)
result: NO

query: Threshold test, EC50 < 3 µg/mL: CC(=O)O[C@H]1C[C@@H](OC(=O)c2ccccc2)C(C)(C)[C@@H]2C[C@@H](OC(C)=O)[C@@]3(C)C4=CC[C@@H](C5COC(=O)C5)[C@]4(C)CC[C@@H]3[C@@]12C (some centres not stated)
result: NO

query: Threshold test, EC50 < 3 µg/mL: CC(=O)O[C@H]1C[C@@H](OC(=O)c2ccccc2)C(C)(C)[C@@H]2C[C@@H](OC(C)=O)[C@@]3(C)C4=CC[C@@H](C5COC(C)(C)C(=O)C(=O)C5)[C@]4(C)CC[C@@H]3[C@@]12C (some centres not stated)
result: YES
